biological target: GIPR (Homo sapiens); test: β-arrestin-2 recruitment by enzyme fragment complementation (PathHunter) CHO-GIPR; assay type: cell-based
Sequence (P48546 22-466): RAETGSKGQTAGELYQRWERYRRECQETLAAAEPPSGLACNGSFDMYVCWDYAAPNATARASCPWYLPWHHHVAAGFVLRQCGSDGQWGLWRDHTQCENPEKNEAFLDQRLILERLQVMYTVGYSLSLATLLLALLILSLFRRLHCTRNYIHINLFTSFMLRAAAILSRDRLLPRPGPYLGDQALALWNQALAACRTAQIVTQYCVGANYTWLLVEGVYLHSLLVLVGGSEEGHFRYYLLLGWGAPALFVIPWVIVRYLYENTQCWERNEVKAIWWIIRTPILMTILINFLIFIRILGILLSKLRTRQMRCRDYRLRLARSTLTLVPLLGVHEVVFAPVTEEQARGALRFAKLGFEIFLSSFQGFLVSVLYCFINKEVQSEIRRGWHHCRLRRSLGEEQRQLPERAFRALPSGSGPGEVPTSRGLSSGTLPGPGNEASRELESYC
Square brackets hold non-standard residues; d marks the D form. Ends that are not written are not given here.
READOUT TYPE: EC50 (nM)
Unit nM implied. Number only.

FAEGTFISDYSIAMDKIHQQDFVNWLLAQKGKKNDWKHNITQ [GIP-Phe1] = 1000
YGEGTFISDYSIAMDKIHQQDFVNWLLAQKGKKNDWKHNITQ [GIP-Gly2] = 316

Next substance, please.
For record YA[dQ]GTFISDYSIAMDKIHQQDFVNWLLAQKGKKNDWKHNITQ [GIP-dGln3] the listed EC50 is 316
